Each recorded value in this set is attributed to patent US20150037348A1.

Molecular target: T1, recombinant human IL-12 (rhIL-12) (human, UniProt P29459 23-219; P29460 23-328)
T1 construct: disulfide-linked p35/p40 heterodimer (p70); also called IL-12 p70; rec. human IL12
T1 sequence (looked up) 1: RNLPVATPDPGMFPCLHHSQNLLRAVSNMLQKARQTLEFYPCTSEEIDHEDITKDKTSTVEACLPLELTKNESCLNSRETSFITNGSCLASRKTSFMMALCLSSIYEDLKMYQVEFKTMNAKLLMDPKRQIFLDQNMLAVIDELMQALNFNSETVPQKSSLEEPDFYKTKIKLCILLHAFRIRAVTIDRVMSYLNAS
T1 sequence (looked up) 2: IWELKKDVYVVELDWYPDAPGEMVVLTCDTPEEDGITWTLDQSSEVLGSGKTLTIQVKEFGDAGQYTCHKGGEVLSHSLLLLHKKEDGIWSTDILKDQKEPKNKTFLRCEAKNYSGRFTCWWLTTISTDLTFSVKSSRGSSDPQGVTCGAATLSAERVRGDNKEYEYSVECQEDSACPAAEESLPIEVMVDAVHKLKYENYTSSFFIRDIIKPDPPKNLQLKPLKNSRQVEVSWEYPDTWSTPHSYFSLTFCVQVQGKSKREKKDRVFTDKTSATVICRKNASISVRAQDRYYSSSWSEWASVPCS
Assay: BIAcore SPR, IL-12 on chip
Each record here notes measured koff.

Binder	koff
AO3 (scFv, V domains shown, scFv clone; only the CDR3s are tied to it) VH: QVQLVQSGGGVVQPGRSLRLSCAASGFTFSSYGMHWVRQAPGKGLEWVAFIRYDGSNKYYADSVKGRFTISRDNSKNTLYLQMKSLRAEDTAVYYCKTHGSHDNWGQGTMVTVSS VL: SYVLTQPPSVSGTPGQRVTISCSGGRSNIGSNTVKWYQQLPGTAPKLLIYGNDQRPSGVPDRFSGSKSGTSASLAITGVQAEDEADYYCQSYDRGTHPLTMFGTGTKVTVL	0.000304 s⁻¹
Y38 (scFv, V domains shown, scFv clone) VH: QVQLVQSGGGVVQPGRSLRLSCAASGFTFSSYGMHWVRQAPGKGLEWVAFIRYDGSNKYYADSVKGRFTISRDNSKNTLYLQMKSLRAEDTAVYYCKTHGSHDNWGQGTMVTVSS VL: SYVLTQPPSVSGTPGQRVTISCSGGRSNIGSNTVKWYQQLPGTAPKLLIYGNDQRPSGVPDRFSGSKSGTSASLAITGVQAEDEADYYCQSYDRGTHPSITFGTGTKVTVL	0.000508 s⁻¹
